- study_target: T1, human CCR7 A315G fused to YPet (human, UniProt P32248 25-378, A315G)
- T1 construct: chemokine receptor CCR7, human (hCCR7), point mutant A315G; also called hCCR7-YPet A315G; source: HeLa, transiently transfected (pcDNA3 hCCR7-YPet A315G), on cells; not shown: YPet, C-terminal, kept
- T1 sequence (looked up): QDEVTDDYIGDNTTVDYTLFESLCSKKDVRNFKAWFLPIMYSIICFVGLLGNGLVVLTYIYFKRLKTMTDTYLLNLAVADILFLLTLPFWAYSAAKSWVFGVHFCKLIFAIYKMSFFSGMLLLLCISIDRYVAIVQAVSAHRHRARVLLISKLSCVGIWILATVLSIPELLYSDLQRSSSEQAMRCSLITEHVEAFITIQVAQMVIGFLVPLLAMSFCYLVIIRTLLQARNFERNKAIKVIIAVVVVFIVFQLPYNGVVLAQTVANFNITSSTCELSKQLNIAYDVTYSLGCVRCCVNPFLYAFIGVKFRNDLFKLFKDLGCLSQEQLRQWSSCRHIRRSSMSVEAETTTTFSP
- method: flow cytometry on cells; competition: HeLa cells transiently expressing YPet-tagged CCR7 variants, 37 °C, 30 min, 25 nM CCL19-S6^649P1 with graded concentrations of native unlabelled hCCL19; MFI (binding and uptake)
- assay_setup: one partner purified
value_kind: Kd

Indicate the recorded Kd value for this binder: native human CCL19 (hCCL19), unlabelled (ligand, UniProt Q99731 22-98, looked up) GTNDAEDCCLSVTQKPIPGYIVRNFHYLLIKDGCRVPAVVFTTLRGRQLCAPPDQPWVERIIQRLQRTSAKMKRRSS
~10 nM
